Experiment: Thermo Scientific Acclaim RSLC 120 C18, 100 × 2.1 mm, 2.2 µm, 30 °C; A: 90% water + 10% methanol + 0.01% formic acid + 5 mM ammonium formate; B: methanol + 0.01% formic acid + 5 mM ammonium formate; gradient (min/%B) 0.1/1 3/39 14/99.9 16/99.9
Details: stereoisomer not certain
MEASURED PROPERTY: LC retention time (min)
The answer is to be given in min; state only the numeric part.

Solved cases below.
CCCC(C(=O)c1ccccc1)N1CCCC1 (configuration not stated) : 5.08
CN1CCC(=C2c3ccccc3CCc3cccnc32)CC1 : 5.99
CC(=O)OC1CN2CCC1CC2 (configuration not stated) : 4.87
O=C1CC2(CCCC2)CC(=O)N1CCCCN1CCN(c2ncccn2)CC1 : 5.78
CCNC1C2CCC(C2)C1c1ccccc1 (configuration not stated) : 6.08
O=c1ccc2cc(OC3OC(CO)C(O)C(O)C3O)c(O)cc2o1 (configuration not stated) : 3.69
CCCC(C(=O)c1ccc2c(c1)OCO2)N1CCCC1 (configuration not stated) : 5.18
CCn1nc(C(=O)O)c(=O)c2cc3c(cc21)OCO3 : 5.32

Can you share its LC retention time? I mean this compound: c1ccc(C(CCN2CCCCC2)c2ccccc2)cc1 6.82

Can you share its LC retention time? I mean this compound: CCCCC(CC)CN1C(=O)C2C3C=CC(C3)C2C1=O (configuration not stated) 11.6

Can you share its LC retention time? I mean this compound: CC(O)Cn1cnc2c1c(=O)n(C)c(=O)n2C (configuration not stated) 4.34

Can you share its LC retention time? I mean this compound: CC(=O)OC1C=CC2C3Cc4ccc(O)c5c4C2(CCN3C)C1O5 (configuration not stated) 3.75

----------
Test: Thermo Scientific Acclaim RSLC 120 C18, 100 × 2.1 mm, 2.2 µm, 30 °C; A: 90% water + 10% methanol + 0.01% formic acid + 5 mM ammonium formate; B: methanol + 0.01% formic acid + 5 mM ammonium formate; gradient (min/%B) 0.1/1 3/39 14/99.9 16/99.9
Conditions: stereoisomer not certain
Mark not met for LC retention time values under 6 min, and met for everything at or above.

Past entries and their recorded results:
Nc1ccc2c(c1)C(c1ccccc1)=NCC(=O)N2 : not met
S=c1nc[nH]c2nc[nH]c12 : not met
CNc1nc(NC(C)C)nc(SC)n1 : met

Quick check, LC retention time >= 6 min? CN(C)C(=O)C(c1ccccc1)c1ccccc1 met

Quick check, LC retention time >= 6 min? COc1nccnc1NS(=O)(=O)c1ccc(N)cc1 not met

----------
Assay: Thermo Scientific Acclaim RSLC 120 C18, 100 × 2.1 mm, 2.2 µm, 30 °C; A: 90% water + 10% methanol + 0.01% formic acid + 5 mM ammonium formate; B: methanol + 0.01% formic acid + 5 mM ammonium formate; gradient (min/%B) 0.1/1 3/39 14/99.9 16/99.9
Settings: stereoisomer not certain
Recorded measurements of LC retention time, one per entry
The answer is to be given in min; state only the numeric part.

Solved cases below.
COC=C(C(=O)OC)c1ccccc1Oc1cc(Oc2ccccc2C#N)ncn1 : 9.02
CCOC1OC(C(=O)O)C(O)C(O)C1O (configuration not stated) : 1.52
c1ccc(CN2CCNCC2)cc1 : 4.23
COC(=O)c1ccccc1S(=O)(=O)NC(=O)Nc1nc(C)nc(OC)n1 : 6.31

Can you share its LC retention time? I mean this compound: CNC(=O)Oc1cc(C)cc(C(C)C)c1 9.51

Can you share its LC retention time? I mean this compound: CCOC(=O)N(C)C(=O)CSP(=S)(OCC)OCC 10.2

Can you share its LC retention time? I mean this compound: CC(C)=CCN1CCC2(C)c3cc(O)ccc3CC1C2C (configuration not stated) 5.46

Can you share its LC retention time? I mean this compound: CC(C)c1ccc(NC(=O)N(C)C)cc1 8.32

Can you share its LC retention time? I mean this compound: CCCc1nn(C)c2c(=O)[nH]c(-c3cc(C(=O)CN4CCN(C)CC4)ccc3OCC)nc12 6.99

Can you share its LC retention time? I mean this compound: CC(C)c1ccc(NC(N)=O)cc1 7.76

Can you share its LC retention time? I mean this compound: CC(C)Nc1nc(N)[nH]c(=O)n1 3.16

Can you share its LC retention time? I mean this compound: COC(=O)Nc1nc2ccc(C(=O)c3ccccc3)cc2[nH]1 8.25

Attribution: the RepoRT retention time repository (doi:10.1016/j.jhazmat.2019.121712)
